# Assay system: O-acyltransferase (Oryctolagus cuniculus, UniProt G1SFD9)
# Sequence (G1SFD9 1-524): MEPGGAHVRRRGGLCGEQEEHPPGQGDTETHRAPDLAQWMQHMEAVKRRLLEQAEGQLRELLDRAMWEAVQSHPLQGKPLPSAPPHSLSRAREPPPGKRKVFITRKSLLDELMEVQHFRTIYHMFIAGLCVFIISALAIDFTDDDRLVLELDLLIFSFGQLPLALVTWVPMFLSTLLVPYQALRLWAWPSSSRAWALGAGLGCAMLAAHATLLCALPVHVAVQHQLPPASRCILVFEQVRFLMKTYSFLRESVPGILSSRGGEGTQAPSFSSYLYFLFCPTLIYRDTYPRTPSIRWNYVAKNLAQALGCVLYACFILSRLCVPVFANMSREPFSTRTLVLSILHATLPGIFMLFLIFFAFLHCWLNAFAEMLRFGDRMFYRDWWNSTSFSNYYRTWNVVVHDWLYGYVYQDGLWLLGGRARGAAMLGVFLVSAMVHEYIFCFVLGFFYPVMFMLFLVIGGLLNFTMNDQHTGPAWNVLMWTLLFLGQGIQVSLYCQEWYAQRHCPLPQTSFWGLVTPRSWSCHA
# Protocol description: In vitro inhibitory activity against Acyl coenzyme A:cholesterol acyltransferase in intestinal microsomes isolated from cholesterol fed rabbits (IAI).
// assign fulfilled if IC50 falls strictly below 30 nM, else not fulfilled (ties count as not fulfilled)

>>> df
                                    molecule    class_label
 0  CCCCC(C)(C)OC(=O)CC(=O)Nc1c(C(C)C)cccc1C(C)C      fulfilled
 1  CC(C)c1cccc(C(C)C)c1NC(=O)CC(=O)OC(c1ccccc1)c1ccccc1  not fulfilled
 2  CCCCCCCCCCCCOC(=O)CC(=O)Nc1c(C(C)C)cccc1C(C)C      fulfilled
 3  CCCCCCCCCCCC[C@H](C)OC(=O)CC(=O)Nc1c(C(C)C)cccc1C(C)C      fulfilled
 4  COc1cc(OC)c(OC(=O)CC(=O)Nc2c(C(C)C)cccc2C(C)C)c(OC)c1  not fulfilled
 5  CC(C)c1cccc(C(C)C)c1OC(=O)CC(=O)Nc1ccccc1  not fulfilled
 6  CC(C)c1cccc(C(C)C)c1NC(=O)CC(=O)OC(c1ccccn1)c1ccccn1  not fulfilled
 7  CCCCCCCCCCCCCCCCOC(=O)CC(=O)Nc1c(C(C)C)cccc1C(C)C  not fulfilled
 8  CC(C)c1cccc(C(C)C)c1NC(=O)CC(=O)Oc1c(-c2ccccc2)cccc1-c1ccccc1  not fulfilled
 9  CCCCCCCCCCCCCCC(C)OC(=O)CC(=O)Nc1c(C(C)C)cccc1C(C)C (configuration not stated)      fulfilled
10   CCCCCCOC(=O)CC(=O)Nc1c(C(C)C)cccc1C(C)C  not fulfilled
11  CCCCCC(C)OC(=O)CC(=O)Nc1c(C(C)C)cccc1C(C)C (configuration not stated)      fulfilled
12  COc1cc(OC)c(NC(=O)CC(=O)Oc2c(C(C)C)cccc2C(C)C)c(OC)c1  not fulfilled
13  CC(C)c1cccc(C(C)C)c1NC(=O)CC(=O)OC(C)(C)C  not fulfilled
14  CCCCCCCCCCCC[C@@H](C)OC(=O)CC(=O)Nc1c(C(C)C)cccc1C(C)C      fulfilled
15         CC(C)c1cccc(C(C)C)c1NC(=O)CC(=O)O  not fulfilled
16  CCCCCCCCCCCCCCOC(=O)CC(=O)Nc1c(C(C)C)cccc1C(C)C      fulfilled
17  CCCCCCCCCCCCC(C)(C)OC(=O)CC(=O)Nc1c(C(C)C)cccc1C(C)C      fulfilled
18  CCCCCCCCCCOC(=O)CC(=O)Nc1c(C(C)C)cccc1C(C)C  not fulfilled
19  CC(C)c1cccc(C(C)C)c1NC(=O)CC(=O)OC(c1ccccc1)c1ccccn1 (configuration not stated)  not fulfilled
20  CC(C)c1cccc(C(C)C)c1OC(=O)CC(=O)Nc1ccc(F)cc1F  not fulfilled
21  CC(C)c1cccc(C(C)C)c1OC(=O)CC(=O)Nc1c(F)cc(F)cc1F  not fulfilled

###

# Tested on: Rattus norvegicus
# Protocol description: In vivo percent change in the total cholesterol after consumption of a single high fat, high cholesterol meal by rats
# Format: functional
// Change lookup, one value per entry
Reported endpoint: Change (%)

In [3]: df
Out[3]:
                                   molecule  u  value_observed
0  CC(C)c1cccc(C(C)C)c1OC(=O)CC(=O)Nc1c(N(C)C)cccc1N(C)C  %             -29
1  CC(C)c1cccc(C(C)C)c1OC(=O)CC(=O)Nc1c(F)cc(F)cc1F  %              -9
2  CCCCCCCCCCCC[C@H](C)OC(=O)CC(=O)Nc1c(C(C)C)cccc1C(C)C  %             -66
3  CCCCCCCCC(C)OC(=O)CC(=O)Nc1c(C(C)C)cccc1C(C)C (configuration not stated)  %             -61
4  CCCCCCCCCCCC[C@@H](C)OC(=O)CC(=O)Nc1c(C(C)C)cccc1C(C)C  %             -67
5  CC(C)c1cccc(C(C)C)c1NC(=O)CC(=O)Oc1c(-c2ccccc2)cccc1-c1ccccc1  %             -41
6  COc1cc(OC)c(NC(=O)CC(=O)Oc2c(C(C)C)cccc2C(C)C)c(OC)c1  %             -29

###

# Test system: Rattus norvegicus
# Protocol description: In vivo percent change in the total cholesterol after consumption of a single high fat, high cholesterol meal by rats
# Type: functional
Reported endpoint: Change (%)

>>> df
                                    compound  reported_endpoint  relation_operator  value_observed
 0  COc1cccc(OC)c1OC(=O)CC(=O)Nc1c(C(C)C)cccc1C(C)C             Change                  =               5
 1  CCCCCCCCCCCCCCOC(=O)CC(=O)Nc1c(C(C)C)cccc1C(C)C             Change                  =             -61
 2  CCCCCCCCCCCCCCCCOC(=O)CC(=O)Nc1c(C(C)C)cccc1C(C)C             Change                  =             -56
 3  CCCCCCCCCCCCOC(=O)CC(=O)Nc1c(C(C)C)cccc1C(C)C             Change                  =             -52
 4  CCCCCCCCOC(=O)CC(=O)Nc1c(C(C)C)cccc1C(C)C             Change                  =             -43
 5  CCCCCCCCCCCCCCC(C)OC(=O)CC(=O)Nc1c(C(C)C)cccc1C(C)C (stereo unspecified)             Change                  =             -60
 6  CC(C)c1cccc(C(C)C)c1NC(=O)CC(=O)OC(c1ccccn1)c1ccccn1             Change                  =             -55
 7  CC(C)c1cccc(C(C)C)c1NC(=O)CC(=O)OC(c1ccccc1)c1ccccc1             Change                  =             -41
 8  CC(C)c1cccc(C(C)C)c1OC(=O)CC(=O)Nc1c(F)cccc1F             Change                  =               4
 9  CC(C)c1cccc(C(C)C)c1NC(=O)CC(=O)Oc1c(C(C)C)cccc1C(C)C             Change                  <             -50
10   CCCCCCOC(=O)CC(=O)Nc1c(C(C)C)cccc1C(C)C             Change                  =             -29
11  CCCCCCCCCCC(C)OC(=O)CC(=O)Nc1c(C(C)C)cccc1C(C)C (stereo unspecified)             Change                  =             -70
12  CCCCCC(C)OC(=O)CC(=O)Nc1c(C(C)C)cccc1C(C)C (stereo unspecified)             Change                  =             -46
13  CCCCCCCCCCCCC(C)(C)OC(=O)CC(=O)Nc1c(C(C)C)cccc1C(C)C             Change                  =             -72
14  COc1cc(OC)c(OC(=O)CC(=O)Nc2c(C(C)C)cccc2C(C)C)c(OC)c1             Change                  =              -9
15  Cc1cccc(C)c1NC(=O)CC(=O)Oc1c(C(C)C)cccc1C(C)C             Change                  =               5
16  CCCCCCCCCCCCCCCCCCOC(=O)CC(=O)Nc1c(C(C)C)cccc1C(C)C             Change                  =             -16
17  CC(C)c1cccc(C(C)C)c1NC(=O)CC(=O)OC(C)(C)C             Change                  =             -24
18  CCCCCCCCCCOC(=O)CC(=O)Nc1c(C(C)C)cccc1C(C)C             Change                  =             -37
19  CCCCC(C)(C)OC(=O)CC(=O)Nc1c(C(C)C)cccc1C(C)C             Change                  =             -52
20  CCCCCCCCCCCCC(C)OC(=O)CC(=O)Nc1c(C(C)C)cccc1C(C)C (stereo unspecified)             Change                  =             -54
